# assayed system: T1, human DLL3 (ACRO, DLL3-H52H4) (human, UniProt Q9NYJ7 27-492)
# T1 construct: Bought
# T1 sequence: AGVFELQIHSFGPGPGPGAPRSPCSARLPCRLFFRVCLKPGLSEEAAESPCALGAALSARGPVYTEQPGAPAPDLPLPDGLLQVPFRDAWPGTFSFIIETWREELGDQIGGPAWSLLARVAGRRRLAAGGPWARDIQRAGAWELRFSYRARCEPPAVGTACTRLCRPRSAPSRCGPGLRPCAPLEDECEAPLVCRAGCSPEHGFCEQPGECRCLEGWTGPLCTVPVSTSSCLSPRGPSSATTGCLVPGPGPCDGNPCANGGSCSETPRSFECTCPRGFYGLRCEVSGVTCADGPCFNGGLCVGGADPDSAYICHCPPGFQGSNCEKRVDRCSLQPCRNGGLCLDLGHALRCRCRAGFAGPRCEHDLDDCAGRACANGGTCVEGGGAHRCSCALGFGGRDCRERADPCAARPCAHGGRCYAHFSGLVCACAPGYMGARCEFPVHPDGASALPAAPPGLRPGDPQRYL
# assay summary: SPR Biacore 8K, Ab captured on Protein A
Threshold 0.001 s⁻¹. koff below it: True. koff at it or above: False.

• hu98L2H2 (antibody, human IgG1, kappa, V domains shown) VH: EVQLVESGGGLVQPGGSLRLSCAASGFTFSDYGIHWVRQAPGKGLEWVAYISSGGYTIYYADTVKGRFTISRDNAKNSLYLQMNSLRAEDTAVYYCARGDYEDIFYTMDYWGQGTTVTVSS VL: DIQMTQSPSSLSASVGDRVTITCRASRDITKFLNWYQQKPGKAVKLLIYYTSRLHSGVPSRFSGSGSGTDYTLTISSLQPEDFATYYCQQGNTLPWTFGGGTKVEIKR = True
• hu30L2H4 (antibody, human IgG1, kappa, V domains shown) VH: EVRLVQSGAEVKKPGASVKVSCKASGYTFTDYYMNWVRQAPGQSLEWMGIINPYSGDTSYNQKFRGRVTLTVDKSASTAYMELSSLRSEDTAVYYCARYHYGPHLEGYFDVWGQGTTVTVSS VL: DIVMTQSPDSLAVSLGERATINCKASENVGYVSWYQQKPGQPPKLLIYGASNRYTGVPDRFSGSGSATDFTLTISSLQAEDVAVYHCGQSYSYPLTFGQGTKLEIKR = False
• hu98L1H2 (antibody, human IgG1, kappa, V domains shown) VH: EVQLVESGGGLVQPGGSLRLSCAASGFTFSDYGIHWVRQAPGKGLEWVAYISSGGYTIYYADTVKGRFTISRDNAKNSLYLQMNSLRAEDTAVYYCARGDYEDIFYTMDYWGQGTTVTVSS VL: DIQMTQSPSSLSASVGDRVTITCRASRDITKFLNWYQQKPGKAPKLLIYYTSRLHSGVPSRFSGSGSGTDFTLTISSLQPEDFATYYCQQGNTLPWTFGGGTKVEIKR = False
• hu6L2H11 (antibody, human IgG1, kappa, V domains shown) VH: EVQLVQSGSELKKPGASVKVSCKASGYTFTDYYMNWVKQAPGQGLEWMGIINPYSGVTIYNHKFKGRFVLSVDKSSNTAYLQISSLKAEDTAVYYCARQDSLLDYAMDYWGQGTTVTVSS VL: DIQMTQSPSSLSASVGDRVTITCHASQGISGNMGWLQQKPGKAPKGLIYHGANLEDGVPSRFSGSGSGADYTLTISSLQPEDFATYYCVQYAQFPYTFGGGTKVEIKR = True
• hu110L1H1 (antibody, human IgG1, kappa, V domains shown) VH: EVQLVQSGAEVKKPGASVKVSCKASGYTFTDYYMNWVRQAPGQRLEWMGIINPYNGGTSYTQKFKGRVTITVDKSASTAYMELSSLRSEDTAVYYCARHFYDSSYLTYSTMDYWGQGTTVTVSS VL: DIVMTQSPDSLAVSLGERATINCKASENVGIFVSWYQQKPGQSPKLLIYGASNRYTGVPDRFSGSGSATDFTLTISSLQAEDVAVYYCGQSHSYPLTFGQGTKLEIKR = True

Data credit: patent US20250376519A1
